# merged literature set: pIC50 with Coagulation factor X (Homo sapiens, UniProt P00742)
pIC50: −log10 of the molar value.
measured.attribute: pIC50

> print(dat)
                                   compound                             system.tested  quantitative.readout
1  N=C(N)NCCC[C@H](NC(=O)[C@H](Cc1ccc(F)cc1)NC(=O)[C@@H](Cc1ccccc1)NS(=O)(=O)Cc1ccccc1)C(=O)c1nccs1  Coagulation factor X (Homo sapiens, UniProt P00742)                  6.73

P: COc1ccc(NC(=O)c2cccc(Cl)c2)c(C(=O)Nc2ccc(N3CCCCC3=O)cc2)c1
Q: CN1CCN=C1c1ccc(C(=O)N2CCN(S(=O)(=O)c3cc4ccc(Cl)cc4s3)CC2CC(=O)N2CCOCC2)cc1 (configuration not stated)
(Q) P or Q : whose pIC50 is greater? State the label of the item chosen.
(A) Q
